Data provenance: ChEMBL document CHEMBL3792298

Attribute: inhibition
molecular target: Beta-secretase 1 (Homo sapiens, UniProt P56817); experiment: Inhibition of human BACE1 expressed in recombinant baculovirus-infected insect cells using rhodamine conjugated APP-based EVNLDAEFK as substrate at 10 uM after 60 mins by FRET analysis
Sequence (P56817 whole entry): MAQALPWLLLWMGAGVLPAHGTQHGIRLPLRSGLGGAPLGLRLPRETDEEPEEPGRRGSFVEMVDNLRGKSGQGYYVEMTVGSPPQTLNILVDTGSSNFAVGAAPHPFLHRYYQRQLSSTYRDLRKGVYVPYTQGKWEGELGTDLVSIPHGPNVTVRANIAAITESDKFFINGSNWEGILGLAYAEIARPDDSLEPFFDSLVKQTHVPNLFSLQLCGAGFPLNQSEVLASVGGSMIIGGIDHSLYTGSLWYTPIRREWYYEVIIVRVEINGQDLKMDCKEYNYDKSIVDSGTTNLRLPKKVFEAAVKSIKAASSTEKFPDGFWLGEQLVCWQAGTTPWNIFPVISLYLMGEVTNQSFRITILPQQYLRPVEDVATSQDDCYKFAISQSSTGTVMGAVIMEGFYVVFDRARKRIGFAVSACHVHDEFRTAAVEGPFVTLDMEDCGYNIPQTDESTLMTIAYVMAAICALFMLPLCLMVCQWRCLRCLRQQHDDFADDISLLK

- line_notation: "O=C(CNS(=O)(=O)c1ccccc1[N+](=O)[O-])Nc1ccccc1"
  tgt: "Beta-secretase 1 (Homo sapiens, UniProt P56817)"
  measurement_unit: "%"
  inhibition: 14.9
- line_notation: "CC(=O)Nc1ccc(S(=O)(=O)NCC(=O)Nc2ccc(C)cc2C)cc1"
  tgt: "Beta-secretase 1 (Homo sapiens, UniProt P56817)"
  measurement_unit: "%"
  inhibition: 61.9
- line_notation: "O=C(CNS(=O)(=O)c1ccccc1)Nc1ccccc1"
  tgt: "Beta-secretase 1 (Homo sapiens, UniProt P56817)"
  measurement_unit: "%"
  inhibition: 8.72
- line_notation: "O=C(CNS(=O)(=O)c1ccc(Cl)cc1)Nc1ccccc1"
  tgt: "Beta-secretase 1 (Homo sapiens, UniProt P56817)"
  measurement_unit: "%"
  inhibition: 22.8
- line_notation: "O=C(CNS(=O)(=O)c1ccc([N+](=O)[O-])cc1)Nc1ccccc1"
  tgt: "Beta-secretase 1 (Homo sapiens, UniProt P56817)"
  measurement_unit: "%"
  inhibition: 5.03
- line_notation: "CC(=O)Nc1ccc(S(=O)(=O)NCC(=O)Nc2ccc(Cl)cc2)cc1"
  tgt: "Beta-secretase 1 (Homo sapiens, UniProt P56817)"
  measurement_unit: "%"
  inhibition: 37.1
